Record form. Attribute: CC50. Fill in for each entry.
- Assay summary: Cytotoxicity against human foreskin fibroblast cells by MTT assay
- Format: cell-based

State recorded CC50 for all listed compounds.
1. CCCCCCCCCCCCC#Cc1cn([C@H]2CC[C@@H](CO)O2)c(=O)[nH]c1=O
2. CCCCCCCCCC#Cc1cn([C@H]2CC[C@@H](CO)O2)c(=O)[nH]c1=O
3. CCCCCCCCC#Cc1cn([C@H]2CC[C@@H](CO)O2)c(=O)[nH]c1=O
4. CCCCCCCCCCCCC#Cc1cn(C2CC(F)C(CO)O2)c(=O)[nH]c1=O (stereo not drawn)
5. CCCCCCCCC#Cc1cn([C@H]2C[C@H](F)[C@@H](CO)O2)c(=O)[nH]c1=O
6. CCCCCCCCCCCC#Cc1cn([C@H]2CC[C@@H](CO)O2)c(=O)[nH]c1=O
7. CCCCCCCCCCCC#Cc1cn([C@H]2C[C@H](F)[C@@H](CO)O2)c(=O)[nH]c1=O
8. CCCCCCCCCCC#Cc1cn([C@H]2C[C@H](F)[C@@H](CO)O2)c(=O)[nH]c1=O

Return:
1: > 100 µg/mL; 2: > 100 µg/mL; 3: > 100 µg/mL; 4: > 100 µg/mL; 5: > 100 µg/mL; 6: > 100 µg/mL; 7: > 100 µg/mL; 8: > 100 µg/mL
